Origin of the recorded values: ChEMBL document CHEMBL4368941

molecular target: ALK tyrosine kinase receptor (Homo sapiens)
Sequence (Q9UM73 whole entry): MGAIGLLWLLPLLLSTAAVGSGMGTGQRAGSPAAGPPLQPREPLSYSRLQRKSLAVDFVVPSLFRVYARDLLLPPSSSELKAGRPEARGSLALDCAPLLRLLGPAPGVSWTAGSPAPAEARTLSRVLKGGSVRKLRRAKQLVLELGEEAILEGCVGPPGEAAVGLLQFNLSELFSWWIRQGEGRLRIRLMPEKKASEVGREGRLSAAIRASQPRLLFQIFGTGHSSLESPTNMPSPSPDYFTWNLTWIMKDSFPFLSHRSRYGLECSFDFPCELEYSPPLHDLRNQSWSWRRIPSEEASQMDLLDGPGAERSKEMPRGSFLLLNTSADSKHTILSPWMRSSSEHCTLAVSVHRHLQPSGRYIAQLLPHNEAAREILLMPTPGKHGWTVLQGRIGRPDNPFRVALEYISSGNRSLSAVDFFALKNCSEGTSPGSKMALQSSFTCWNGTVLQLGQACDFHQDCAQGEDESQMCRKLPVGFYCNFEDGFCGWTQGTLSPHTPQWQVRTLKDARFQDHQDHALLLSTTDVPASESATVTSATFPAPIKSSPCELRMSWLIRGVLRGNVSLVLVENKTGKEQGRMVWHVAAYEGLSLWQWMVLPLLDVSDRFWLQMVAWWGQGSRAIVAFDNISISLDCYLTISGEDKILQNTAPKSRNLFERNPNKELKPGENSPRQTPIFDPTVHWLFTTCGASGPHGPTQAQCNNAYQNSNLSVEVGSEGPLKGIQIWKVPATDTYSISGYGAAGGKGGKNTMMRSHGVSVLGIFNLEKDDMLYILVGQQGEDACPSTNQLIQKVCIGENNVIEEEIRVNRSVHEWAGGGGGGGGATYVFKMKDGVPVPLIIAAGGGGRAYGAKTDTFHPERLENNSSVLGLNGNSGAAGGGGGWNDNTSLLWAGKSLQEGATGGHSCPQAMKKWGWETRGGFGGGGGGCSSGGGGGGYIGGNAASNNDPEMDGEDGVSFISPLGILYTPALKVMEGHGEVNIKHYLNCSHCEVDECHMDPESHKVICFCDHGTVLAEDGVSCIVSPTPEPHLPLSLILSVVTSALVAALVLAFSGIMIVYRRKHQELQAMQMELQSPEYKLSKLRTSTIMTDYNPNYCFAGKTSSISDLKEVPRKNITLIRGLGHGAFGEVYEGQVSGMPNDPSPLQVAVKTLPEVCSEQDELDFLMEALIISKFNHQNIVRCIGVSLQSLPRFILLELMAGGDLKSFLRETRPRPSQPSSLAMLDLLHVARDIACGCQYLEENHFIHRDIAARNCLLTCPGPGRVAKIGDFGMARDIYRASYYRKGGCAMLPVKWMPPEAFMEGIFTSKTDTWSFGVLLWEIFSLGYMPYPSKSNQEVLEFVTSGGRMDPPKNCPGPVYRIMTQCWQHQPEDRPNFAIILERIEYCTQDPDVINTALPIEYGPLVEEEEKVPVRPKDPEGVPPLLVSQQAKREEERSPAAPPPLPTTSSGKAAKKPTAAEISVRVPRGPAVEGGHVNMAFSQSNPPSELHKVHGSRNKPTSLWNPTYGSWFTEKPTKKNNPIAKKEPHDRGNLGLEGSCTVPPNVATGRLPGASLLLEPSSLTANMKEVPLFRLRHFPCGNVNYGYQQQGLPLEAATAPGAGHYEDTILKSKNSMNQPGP
pIC50: −log10 of the molar value.
reported_property: pIC50

{"compound": "OCC1CCCCN1Cc1ccc(-c2n[nH]c3nc(-c4ccc(O)cc4)ccc23)o1 (stereo not given)", "reported_property": "pIC50", "measured_result": 6.25}

a. CC(C)N1CCN(Cc2ccc(-c3n[nH]c4nc(-c5ccc(O)cc5)ccc34)o2)CC1
b. Oc1ccc(-c2ccc3c(-c4ccc(F)cc4)n[nH]c3n2)cc1
Inquiry: Hi team, can someone confirm which has the larger pIC50: a or b ? Thanks. Label of pick, please.
Reply text: a

I. CC(C)N1CCN(c2ccc(-c3n[nH]c4nc(-c5ccc(N)cc5)ccc34)cc2)CC1
II. Oc1ccc(-c2ccc3c(-c4cnn(C5CCNCC5)c4)n[nH]c3n2)cc1
Inquiry: I'm curious whether I or II has the smaller pIC50 number. Which is it? Label of pick, please.
Reply text: I
(I: 6.66, II: 7.86)

P. Oc1ccc(-c2ccc3c(-c4ccccc4)n[nH]c3n2)cc1
Q. COc1cc(N2CCN(C(C)C)CC2)ccc1-c1n[nH]c2nc(-c3ccc(O)c(F)c3)ccc12
R. CC(C)N1CCN(c2ccc(-c3n[nH]c4nc(-c5cc(F)c(O)c(F)c5)ccc34)cc2)CC1
S. Oc1ccc(-c2ccc3c(-c4ccc(O)cc4)n[nH]c3n2)cc1
Inquiry: Put the entries in order of pIC50, starting with the largest number. Arrange the labels as the request states and list them.
Reply text: Q, S, P, R

a. Oc1ccc(-c2ccc3c(-c4ccc(CN5CCCC5)o4)n[nH]c3n2)cc1
b. Cc1ccc(-c2n[nH]c3nc(-c4ccc(O)cc4)ccc23)o1
c. Oc1ccc(-c2ccc3c(-c4ccc(N5CCOCC5)cc4)n[nH]c3n2)cc1
Inquiry: Put the entries in order of pIC50, starting with the largest number. Arrange the labels as the request states and list them.
Reply text: b, a, c

a. Oc1ccc(-c2ccc3c(-c4ccc(CN5CCCCC5)o4)n[nH]c3n2)cc1
b. Oc1ccc(-c2ccc3c(-c4cnn(C5CCNCC5)c4)n[nH]c3n2)cc1F
Inquiry: I'm curious whether a or b has the smaller pIC50 number. Which is it? Label of pick, please.
Reply text: a

a. Oc1ccc(-c2ccc3c(-c4ccc(N5CCCCC5)cc4)n[nH]c3n2)cc1
b. CC(C)N1CCN(c2ccc(-c3n[nH]c4nc(-c5ccc(O)cc5)ccc34)cc2)CC1
Inquiry: Hi team, can someone confirm which has the larger pIC50: a or b ? Thanks. Label of pick, please.
Reply text: b

---

molecular target: UniProt Q9UM73
Listed here are compounds together with their documented IC50.

{"given_smiles": "COc1ccc(-c2n[nH]c3nc(-c4ccc(O)cc4)ccc23)cc1", "reported_property": "IC50", "measured_result": "239 nM"}

Inquiry: Would you please give the reported IC50 of "CC(C)N1CCN(c2ccc(-c3n[nH]c4nc(-c5ccc(C#N)cc5)ccc34)cc2)CC1" with UniProt Q9UM73?
Reply text: > 2000 nM

Inquiry: Would you please give the reported IC50 of "Oc1ccc(-c2ccc3c(-c4ccc(Cl)cc4)n[nH]c3n2)cc1" with UniProt Q9UM73?
Reply text: > 2000 nM

Inquiry: Would you please give the reported IC50 of "CC(C)N1CCN(c2ccc(-c3n[nH]c4nc(-c5ccc(F)cc5)ccc34)cc2)CC1" with UniProt Q9UM73?
Reply text: > 2000 nM
